- study.target: Thioesterase GrsT homolog tycF (Brevibacillus brevis)
- Sequence (whole entry): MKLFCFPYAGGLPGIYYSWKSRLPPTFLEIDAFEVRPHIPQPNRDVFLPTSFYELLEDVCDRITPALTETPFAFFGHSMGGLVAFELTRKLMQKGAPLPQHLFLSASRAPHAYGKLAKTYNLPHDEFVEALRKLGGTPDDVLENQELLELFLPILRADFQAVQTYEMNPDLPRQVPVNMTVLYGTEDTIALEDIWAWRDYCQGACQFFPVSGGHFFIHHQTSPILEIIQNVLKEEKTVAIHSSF
- protocol.description: Apparent kinetic constant (Kcat) for tyrocidine thioesterase amplified from Bacillus brevis (ATCC8185)
readout.label: k cat (s⁻¹)
Report the figure in s⁻¹ without appending any unit label.

[[record]]
compound_smiles = "CSCC[C@H](NC(=O)[C@H](Cc1ccccc1)NC(=O)[C@@H]1CCCN1C(=O)[C@H](N)Cc1ccccc1)C(=O)N[C@@H](CC(N)=O)C(=O)N[C@@H](CCC(N)=O)C(=O)N[C@@H](Cc1ccc(O)cc1)C(=O)N[C@H](C(=O)N[C@@H](CCCN)C(=O)N[C@@H](CC(C)C)C(=O)SCCNC(C)=O)C(C)C"
study_target = "Thioesterase GrsT homolog tycF (Brevibacillus brevis)"
readout_label = "k cat"
reported_value = 0.267


Supply measured k cat of CC(=O)NCCSC(=O)[C@H](CC(C)C)NC(=O)[C@H](CCCN)NC(=O)[C@@H](NC(=O)[C@H](Cc1ccc(O)cc1)NC(=O)[C@H](CCC(N)=O)NC(=O)[C@H](CC(N)=O)NC(=O)[C@@H](Cc1ccccc1)NC(=O)[C@H](Cc1ccccc1)NC(=O)[C@H](CC(=O)O)NC(=O)[C@H](N)Cc1ccccc1)C(C)C in your reply.
0.167

* * *

- study.target: Thioesterase GrsT homolog tycF (Brevibacillus brevis) (UniProt O30412)
- protocol.description: Apparent kinetic constant (Kcat) for tyrocidine thioesterase amplified from Bacillus brevis (ATCC8185)
readout.label: k cat

Consider the worked cases shown below.
[[record]]
compound_smiles = "CC(=O)NCCSC(=O)[C@H](CC(C)C)NC(=O)[C@H](CCCN)NC(=O)[C@@H](NC(=O)[C@H](Cc1ccc(O)cc1)NC(=O)[C@H](CCC(N)=O)NC(=O)[C@H](CC(N)=O)NC(=O)CNC(=O)[C@H](Cc1ccccc1)NC(=O)[C@@H]1CCCN1C(=O)[C@H](N)Cc1ccccc1)C(C)C"
study_target = "Thioesterase GrsT homolog tycF (Brevibacillus brevis) (UniProt O30412)"
readout_label = "k cat"
reported_value = "0.133 s⁻¹"

[[record]]
compound_smiles = "CC(=O)NCCSC(=O)[C@H](CC(C)C)NC(=O)[C@H](CCCN)NC(=O)[C@@H](NC(=O)[C@H](Cc1ccc(O)cc1)NC(=O)[C@H](CCC(N)=O)NC(=O)[C@H](CC(N)=O)NC(=O)[C@@H](Cc1ccccc1)NC(=O)[C@H](CC(N)=O)NC(=O)[C@@H]1CCCN1C(=O)[C@H](N)Cc1ccccc1)C(C)C"
study_target = "Thioesterase GrsT homolog tycF (Brevibacillus brevis) (UniProt O30412)"
readout_label = "k cat"
reported_value = "0.233 s⁻¹"


// moving on: another record for k cat
Provide k cat, recorded with Thioesterase GrsT homolog tycF (Brevibacillus brevis) (UniProt O30412), of CC(=O)NCCSC(=O)[C@H](CC(C)C)NC(=O)[C@H](CCCN)NC(=O)[C@@H](NC(=O)[C@H](Cc1ccc(O)cc1)NC(=O)[C@H](CCC(N)=O)NC(=O)[C@H](CC(N)=O)NC(=O)[C@H](Cc1c[nH]c2ccccc12)NC(=O)[C@H](Cc1ccccc1)NC(=O)[C@@H]1CCCN1C(=O)[C@H](N)Cc1ccccc1)C(C)C
0.12 s⁻¹
